meta.source: patent US20250388575A1

test system: T-Rex 293 cell line SC cells having increased expression of progesterone receptor isoform B protein; test: Cellular growth inhibition, T-Rex 293 SC cells with increased progesterone receptor isoform B expression (doxycycline), CellTiter-Glo; type: cell-based; details: progesterone receptor isoform B induced with 10 ng/mL doxycycline, 72 hours
I'd be grateful if you could share measured GI50 for these entries.

Solved cases (2 shown):
| Test Smiles | GI50 |
| --- | --- |
| CCS(=O)(=O)c1ccc(Oc2cccc(CCCOC3CC4(C3)CN(c3ccc(C(=O)N[C@H]5CC[C@H](Oc6ccc(C#N)c(Cl)c6)CC5)nn3)C4)c2F)c(-c2cn(C)c(=O)c3[nH]ccc23)c1 | < 500 nM |
| Cn1cc(-c2cc(C(C)(C)O)ccc2Oc2ccc(N3CC(C4CCN(c5ccc(C(=O)N[C@H]6CC[C@H](Oc7ccc(C#N)c(Cl)c7)CC6)nn5)CC4)C3)cc2)c2cc[nH]c2c1=O | < 500 nM |

Next molecule, GI50 to be filled in.
Request the reported GI50 associated with CCS(=O)(=O)c1ccc(Oc2cc(F)c(CCC3CCN(c4ccc(C(=O)N[C@H]5CC[C@H](Oc6ccc(C#N)c(Cl)c6)CC5)nn4)CC3)cc2F)c(-c2cn(C)c(=O)c3[nH]ccc23)c1
< 500 nM
